# System: ANGPTL3 gene
# Assay Info: ANGPTL3 gRNA/SpCas9 editing in primary cynomolgus hepatocytes (Table 3)
# Format: cell-based, cynomolgus monkey
Quantity: Cyno Primary Hepatocyte Editing % 100 ng/mL (%)
One number for each entry, in %.

Take a look at these entries with their results.
[
  {
    "Molecule": "GA126: ANGPTL3 gRNA; protospacer GGAGTAGTTCTTGGTGCTCT (SEQ ID NO: 124) (nucleic acid, 2'-O-methyl at 1, 2, other sugars and backbone not given here; further chemistry not fully specified) guide: GGAGTAGTTCTTGGTGCTCTGTTTTAGAGCTAGAAATAGCAAGTTAAAATAAGGCTAGTCCGTTATCAACTTGAAAAAGTGGCACCGAGTCGGTGCTTTT",
    "Experimental Value": 8.29
  },
  {
    "Molecule": "GA107: ANGPTL3 gRNA; protospacer AGCCAATGGCCTCCTTCAGT (SEQ ID NO: 105) (nucleic acid, 2'-O-methyl at 1, 2, other sugars and backbone not given here; further chemistry not fully specified) guide: AGCCAATGGCCTCCTTCAGTGTTTTAGAGCTAGAAATAGCAAGTTAAAATAAGGCTAGTCCGTTATCAACTTGAAAAAGTGGCACCGAGTCGGTGCTTTT",
    "Experimental Value": 32.58
  },
  {
    "Molecule": "GA117: ANGPTL3 gRNA; protospacer ACTACAAGTCAAAAATGAAG (SEQ ID NO: 115) (nucleic acid, 2'-O-methyl at 1, 2, other sugars and backbone not given here; further chemistry not fully specified) guide: ACTACAAGTCAAAAATGAAGGTTTTAGAGCTAGAAATAGCAAGTTAAAATAAGGCTAGTCCGTTATCAACTTGAAAAAGTGGCACCGAGTCGGTGCTTTT",
    "Experimental Value": 10.01
  },
  {
    "Molecule": "GA127: ANGPTL3 gRNA; protospacer AACATGATGGTAAGACACTT (SEQ ID NO: 125) (nucleic acid, 2'-O-methyl at 1, 2, other sugars and backbone not given here; further chemistry not fully specified) guide: AACATGATGGTAAGACACTTGTTTTAGAGCTAGAAATAGCAAGTTAAAATAAGGCTAGTCCGTTATCAACTTGAAAAAGTGGCACCGAGTCGGTGCTTTT",
    "Experimental Value": 19.89
  },
  {
    "Molecule": "GA130: ANGPTL3 gRNA; protospacer ATGATGGTAAGACACTTTGG (SEQ ID NO: 128) (nucleic acid, 2'-O-methyl at 1, 2, other sugars, backbone and T or U not given here; further chemistry not fully specified) guide: AUGATGGTAAGACACTTTGGGTTTTAGAGCTAGAAATAGCAAGTTAAAATAAGGCTAGTCCGTTATCAACTTGAAAAAGTGGCACCGAGTCGGTGCTTTT",
    "Experimental Value": 14.60
  },
  {
    "Molecule": "GA131: ANGPTL3 gRNA; protospacer GAAGATAGAGAAATTTCTGT (SEQ ID NO: 129) (nucleic acid, 2'-O-methyl at 1, 2, other sugars and backbone not given here; further chemistry not fully specified) guide: GAAGATAGAGAAATTTCTGTGTTTTAGAGCTAGAAATAGCAAGTTAAAATAAGGCTAGTCCGTTATCAACTTGAAAAAGTGGCACCGAGTCGGTGCTTTT",
    "Experimental Value": 10.10
  }
]

Hi! Can you tell me Cyno Primary Hepatocyte Editing % 100 ng/mL for each of these molecules?
1. GA137: ANGPTL3 gRNA; protospacer TATCAGGTAAAACCTGTCTA (SEQ ID NO: 135) (nucleic acid, 2'-O-methyl at 1, 2, other sugars, backbone and T or U not given here; further chemistry not fully specified) guide: UATCAGGTAAAACCTGTCTAGTTTTAGAGCTAGAAATAGCAAGTTAAAATAAGGCTAGTCCGTTATCAACTTGAAAAAGTGGCACCGAGTCGGTGCTTTT
2. GA115: ANGPTL3 gRNA; protospacer AACATAGCAAATCTTGATTT (SEQ ID NO: 113) (nucleic acid, 2'-O-methyl at 1, 2, other sugars and backbone not given here; further chemistry not fully specified) guide: AACATAGCAAATCTTGATTTGTTTTAGAGCTAGAAATAGCAAGTTAAAATAAGGCTAGTCCGTTATCAACTTGAAAAAGTGGCACCGAGTCGGTGCTTTT
3. GA145: ANGPTL3 gRNA; protospacer CATTATATTCAGGTAGTCCA (SEQ ID NO: 143) (nucleic acid, 2'-O-methyl at 1, 2, other sugars and backbone not given here; further chemistry not fully specified) guide: CATTATATTCAGGTAGTCCAGTTTTAGAGCTAGAAATAGCAAGTTAAAATAAGGCTAGTCCGTTATCAACTTGAAAAAGTGGCACCGAGTCGGTGCTTTT
4. GA122: ANGPTL3 gRNA; protospacer CTTTTATTTGACTATGCTGT (SEQ ID NO: 120) (nucleic acid, 2'-O-methyl at 1, 2, other sugars, backbone and T or U not given here; further chemistry not fully specified) guide: CUTTTATTTGACTATGCTGTGTTTTAGAGCTAGAAATAGCAAGTTAAAATAAGGCTAGTCCGTTATCAACTTGAAAAAGTGGCACCGAGTCGGTGCTTTT
5. GA141: ANGPTL3 gRNA; protospacer TTGAGAGTTGCTGGGTCTGA (SEQ ID NO: 139) (nucleic acid, 2'-O-methyl at 1, 2, other sugars, backbone and T or U not given here; further chemistry not fully specified) guide: UUGAGAGTTGCTGGGTCTGAGTTTTAGAGCTAGAAATAGCAAGTTAAAATAAGGCTAGTCCGTTATCAACTTGAAAAAGTGGCACCGAGTCGGTGCTTTT

OUTPUT:
28.01
12.58
18.77
7.28
5.49
